B1: BRF1 (parent)
chain: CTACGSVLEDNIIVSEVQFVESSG

Variants of: B1
assay_summary: protein stability index of a GFP-peptide fusion (GPS, HEK-293T) (PSI 1-6); higher = more stable;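 note: lentivirally expressed fusions sorted by FACS into six bins by GFP to DsRed ratio, PSI derived from sequencing read proportions per bin multiplied by bin number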
condition_label: c terminus: a fixed tail appended
Binary classification by protein stability index, with 3 as an inclusive lower bound for yes; all other cases are no.

S15F no

// query Is protein stability index at least 3? Consider Q18V
// result no

// query Reported protein stability index at or above 3? I12G
// result yes

// query Kindly determine if protein stability index recorded for T2L is above or exactly 3.
// result no

// query Does V14K have a reported protein stability index of at least 3?
// result yes

// query Please indicate if the recorded protein stability index for E9N meets or exceeds 3.
// result no
